experimental_target: Bifunctional dihydrofolate reductase-thymidylate synthase (Cryptosporidium hominis)
Sequence (A0A0S4TER9 whole entry): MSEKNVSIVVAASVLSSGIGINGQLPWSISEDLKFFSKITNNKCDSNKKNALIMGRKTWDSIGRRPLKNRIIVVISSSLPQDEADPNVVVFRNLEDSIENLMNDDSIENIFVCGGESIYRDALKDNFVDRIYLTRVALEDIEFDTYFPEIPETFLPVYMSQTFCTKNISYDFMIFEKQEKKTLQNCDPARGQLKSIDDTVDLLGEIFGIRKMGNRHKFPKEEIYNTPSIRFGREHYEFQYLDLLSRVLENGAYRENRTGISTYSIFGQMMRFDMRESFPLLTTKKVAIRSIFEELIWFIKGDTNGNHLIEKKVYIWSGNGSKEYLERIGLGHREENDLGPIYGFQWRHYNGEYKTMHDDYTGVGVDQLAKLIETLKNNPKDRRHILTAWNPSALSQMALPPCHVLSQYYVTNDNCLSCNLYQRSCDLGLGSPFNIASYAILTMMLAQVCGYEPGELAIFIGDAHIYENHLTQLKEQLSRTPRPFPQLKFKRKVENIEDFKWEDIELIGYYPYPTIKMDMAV
assay_comment: Inhibition of recombinant Cryptosporidium hominis TS-DHFR expresssed in Escherichia coli PA414 using dUMP and 5,10-methylenetetrahydrofolate as substrate by spectrometry
Can you tell me log10 IC50 for the items I'm about to list?
Form field - Quantity: IC50; Unit: µM; Scale: log10

input: Give measured log10 IC50 for `COCCOc1cc(OC)cc(-c2ccc(Cc3c[nH]c4nc(N)[nH]c(=O)c34)cc2)c1` (Bifunctional dihydrofolate reductase-thymidylate synthase (Cryptosporidium hominis)).
output: 1.99

input: Report measured log10 IC50 on Bifunctional dihydrofolate reductase-thymidylate synthase (Cryptosporidium hominis); entry: `N#Cc1ccc(CC(=O)O)c(NC(=O)c2ccc(Cc3c[nH]c4nc(N)[nH]c(=O)c34)cc2)c1`
output: 0.96

input: Return reported log10 IC50 for target or system Bifunctional dihydrofolate reductase-thymidylate synthase (Cryptosporidium hominis), item `Nc1nc2[nH]cc(Cc3ccc(C(=O)Nc4cc(C(=O)O)ccc4C(=O)O)cc3)c2c(=O)[nH]1` .
output: 1.26

input: // output log10 IC50; input `Nc1nc2[nH]cc(Cc3ccc(C(=O)Nc4ccccc4C(=O)O)cc3)c2c(=O)[nH]1` ; system Bifunctional dihydrofolate reductase-thymidylate synthase (Cryptosporidium hominis)
output: 1.30

input: Report log10 IC50 under test system Bifunctional dihydrofolate reductase-thymidylate synthase (Cryptosporidium hominis) for `COc1ccc(CC(=O)O)c(NC(=O)c2ccc(Cc3c[nH]c4nc(N)[nH]c(=O)c34)cc2)c1` .
output: 1.04

input: Give log10 IC50 only, for `COc1ccc(C(=O)O)c(NC(=O)c2ccc(Cc3c[nH]c4nc(N)[nH]c(=O)c34)cc2)c1` , using Bifunctional dihydrofolate reductase-thymidylate synthase (Cryptosporidium hominis) data.
output: 1.70

input: State log10 IC50 (Bifunctional dihydrofolate reductase-thymidylate synthase (Cryptosporidium hominis)) of `N#Cc1ccc(C(=O)O)c(NC(=O)c2ccc(Cc3c[nH]c4nc(N)[nH]c(=O)c34)cc2)c1` .
output: 1.04

input: Provide the reported log10 IC50 (system: Bifunctional dihydrofolate reductase-thymidylate synthase (Cryptosporidium hominis)) for `Nc1nc2[nH]cc(Cc3ccc(C(=O)Nc4ccccc4CCC(=O)O)cc3)c2c(=O)[nH]1`
output: 2.06

input: Give log10 IC50 for `Nc1nc2[nH]cc(Cc3ccc(C(=O)Nc4cccc(C(=O)O)c4)cc3)c2c(=O)[nH]1` tested on Bifunctional dihydrofolate reductase-thymidylate synthase (Cryptosporidium hominis).
output: 1.98

input: Check Bifunctional dihydrofolate reductase-thymidylate synthase (Cryptosporidium hominis) data and give log10 IC50 for `Nc1nc2[nH]cc(Cc3ccc(C(=O)NCc4ccccc4C(=O)O)cc3)c2c(=O)[nH]1` .
output: 2.08

input: Report the value of log10 IC50 obtained on Bifunctional dihydrofolate reductase-thymidylate synthase (Cryptosporidium hominis) for `Nc1nc2[nH]cc(Cc3ccc(C(=O)Nc4cc(C(=O)O)ccc4CC(=O)O)cc3)c2c(=O)[nH]1` .
output: 1.00

input: Consider the molecule `CN(C(=O)c1ccc(Cc2c[nH]c3nc(N)[nH]c(=O)c23)cc1)c1ccccc1C(=O)O` tested on Bifunctional dihydrofolate reductase-thymidylate synthase (Cryptosporidium hominis); state its log10 IC50.
output: 2.32

input: Param request: log10 IC50 | system Bifunctional dihydrofolate reductase-thymidylate synthase (Cryptosporidium hominis) | item `Nc1nc2[nH]cc(Cc3ccc(C(=O)Nc4ccccc4-c4nnn[nH]4)cc3)c2c(=O)[nH]1`
output: 2.20
